System: Nucleic Acid
Test description: Binding affinity to HSP90B quadruplex DNA assessed as change in melting temperature at 2 uM by FRET melting assay
Assay type: nucleic-acid assay
Experimental context: Homo sapiens
Known ΔTm of a selection of compounds
Readout label: ΔTm (°C)

c1cc(-c2cnc(-c3ccc(OCCCN4CCCC4)cc3)o2)cc(-c2cnc(-c3ccc(OCCCN4CCCC4)cc3)o2)c1 6
c1cc(-c2cnc(-c3ccc(OCCCCN4CCCC4)cc3)o2)cc(-c2cnc(-c3ccc(OCCCCN4CCCC4)cc3)o2)c1 5
CN1CCN(Cc2ccc(-c3ncc(-c4cccc(-c5cnc(-c6ccc(CN7CCN(C)CC7)cc6)o5)c4)o3)cc2)CC1 12
c1cc(-c2cnc(-c3ccc(CN4CCCCCC4)cc3)o2)cc(-c2cnc(-c3ccc(CN4CCCCCC4)cc3)o2)c1 11
c1cc(-c2cnc(-c3cccc(CN4CCCCC4)c3)o2)cc(-c2cnc(-c3cccc(CN4CCCCC4)c3)o2)c1 6
CN1CCN(CCc2ccc(-c3ncc(-c4cccc(-c5cnc(-c6ccc(CCN7CCN(C)CC7)cc6)o5)c4)o3)cc2)CC1 7
c1cc(-c2cnc(-c3ccc(CN4CCOCC4)cc3)o2)cc(-c2cnc(-c3ccc(CN4CCOCC4)cc3)o2)c1 6
c1cc(-c2cnc(-c3ccc(CN4CCCC4)cc3)o2)cc(-c2cnc(-c3ccc(CN4CCCC4)cc3)o2)c1 4

---

Test system: Nucleic Acid
Test description: Binding affinity to human G4 telomeric quadruplex DNA assessed as change in melting temperature at 2 uM by FRET melting assay
Type: nucleic-acid assay
Known ΔTm of a selection of molecules
Readout label: ΔTm

c1cc(-c2cnc(-c3cccc(CN4CCCCC4)c3)o2)cc(-c2cnc(-c3cccc(CN4CCCCC4)c3)o2)c1 < 2 °C
c1cc(-c2cnc(-c3ccc(OCCCN4CCCC4)cc3)o2)cc(-c2cnc(-c3ccc(OCCCN4CCCC4)cc3)o2)c1 < 2 °C
c1cc(-c2cnc(-c3ccc(OCCN4CCCC4)cc3)o2)cc(-c2cnc(-c3ccc(OCCN4CCCC4)cc3)o2)c1 < 2 °C
